- Assay Method Text: Pharmacokinetics of 40 mg oral esketamine in MDD participants treated with an antidepressant
- Type: in vivo, human
- Measurement Parameters: human, in vivo; 40 mg oral esketamine hydrochloride once daily for 7 days; 15 MDD subjects; read-out: mean esketamine AUC0-t
Measured Attribute: AUC(0-t)
Record the result as number plus unit.

[in] Give the value of AUC(0-t) reported for the following: CN[C@]1(c2ccccc2Cl)CCCCC1=O [esketamine]
[out] 35.6 ng·h/mL

# credit: patent US12076300B2
